- protocol-description: Mouse in vivo pharmacokinetic studies
- Design: species or system C57BL/6 male mice
- run-conditions: male, C57BL/6, plasma, oral gavage, 5 mg/kg
experimental-readout: Tmax (min)
Express the result in min but write the number alone.

Consider the compound shown here: CCC1(CC)C[C@H](CCN2CCN(c3ccc(O)cc3)CC2)OC1=O What is its recorded Tmax?
30

Consider the compound shown here: CCC1(CC)C[C@@H](CCN2CCN(c3ccc(O)cc3)CC2)OC1=O What is its recorded Tmax?
30

Consider the compound shown here: CCC1(CC)CC(CCN2CCN(c3ccc(O)cc3)CC2)OC1=O (stereo not drawn) What is its recorded Tmax?
15

###

- tested-system: human 5HT7A-HEK membranes (Homo sapiens, UniProt P34969)
- Sequence (P34969 1-445 isoform P34969-2): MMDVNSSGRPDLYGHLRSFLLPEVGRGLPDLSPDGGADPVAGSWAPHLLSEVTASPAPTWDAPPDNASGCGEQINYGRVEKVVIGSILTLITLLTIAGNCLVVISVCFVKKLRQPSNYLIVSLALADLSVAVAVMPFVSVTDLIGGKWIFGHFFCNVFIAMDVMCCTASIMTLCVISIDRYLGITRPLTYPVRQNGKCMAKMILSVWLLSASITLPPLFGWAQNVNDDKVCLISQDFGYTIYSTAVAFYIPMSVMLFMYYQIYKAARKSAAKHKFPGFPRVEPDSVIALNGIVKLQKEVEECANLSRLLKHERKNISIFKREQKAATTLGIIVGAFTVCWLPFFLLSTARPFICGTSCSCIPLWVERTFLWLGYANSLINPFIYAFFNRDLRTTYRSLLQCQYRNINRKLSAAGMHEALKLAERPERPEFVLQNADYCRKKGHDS
experimental-readout: pKi
Please keep in mind that pKi is minus log10 of the molar concentration; only the number is needed.

Missing value: pKi, human 5HT7A-HEK membranes (Homo sapiens, UniProt P34969), entry CCC1(CC)CC(CCN2CCN(c3ccc(O)cc3)CC2)OC1=O (stereo not shown) . Fill in?
7.05
